Measured values drawn from a melting point compilation (Tetko et al.; mined from patent text by program, amines drawn as free bases though some values may be those of a salt) for this set.

Recorded melting point values for a group of compounds are listed next.

As a guide, the following entries are already answered.
compound	melting point
O=C(NCC1(c2nc(C3CC3)cs2)CC1)c1ccccc1C(F)(F)F	83.4 to 84.2 °C
O=C(Nc1nccs1)C(CC1CCCC1)c1ccc(S(=O)(=O)C(F)(F)F)cc1 (configuration not stated)	48 to 52 °C
CCCCc1nc2cccc(C(=O)OCCO)c2n1Cc1ccc(-c2ccccc2-c2nnn[nH]2)cc1	145 to 147 °C
O=Cc1c(-c2ccccc2)nn2ccccc12	221 to 222 °C
COc1ccc(COCc2cccc(C(=O)O)c2)cc1OC1CC2CCC1C2 (configuration not stated)	77 to 79 °C

# input for lookup
[ask] I am curious: what melting point value has been reported for Cc1cc(N2CCN(C(=O)NCCCCC3CCSS3)CC2)ccc1N=C(N)c1cccs1 (configuration not stated) ?
[reply] 169 to 171 °C

----------
Recorded melting point by entry

Worked examples, 5 compounds total:
molecule_smiles	melting point
CS(=O)(=O)Nc1ccc(CC#N)c2cn[nH]c12	223 to 225 °C
N#Cc1c2ccccc2c(C=O)c2ccccc12	270 to 275 °C
O=c1[nH]c2ncc(-c3ccc(O)cc3)nc2n1CCc1ccccc1	283 to 284 °C
COc1cc(N2CCCN(C3CCN(C)CC3)CC2)ccc1Nc1ncc2ccc(-c3ccccc3N(C)S(C)(=O)=O)n2n1	90 to 97 °C
CCNC(=O)Cc1cc(Oc2ccc(C(F)(F)F)cc2Cl)ccc1[N+](=O)[O-]	189 °C

Lab note: next compound to report on.
[ask] I'd like to know its melting point. The compound in question is NCCCc1c[nH]c2ccc3c(=O)[nH]ccc3c12
[reply] 225 to 230 °C

----------
Documented melting point across a set of compounds

As a guide, the following entries are already answered.
compound	melting point
COc1cc(N)c2nccc(C)c2c1F	126 to 128 °C
CC(C)Cn1cnc2c(N)nc3c(c21)CCCN3	231 to 233 °C
O=[N+]([O-])c1cccc(CBr)c1CBr	68 to 70 °C

[ask] // lookup melting point for O=Cc1ccc(OC2CCCC2)c(Oc2ccc([N+](=O)[O-])cc2Br)c1
[reply] 92 to 94 °C

[ask] Look up melting point: CCOC(=O)c1c(C)[nH]c(CC)c1C
[reply] 108 to 109 °C

----------
Below, each entry is listed alongside its reported melting point.

Solved cases (2 shown):
compound	melting point
Cc1c(C)c2c(c(C)c1O)CCC(COc1ccc(CC3SC(=O)NC3=O)cc1)O2 (stereo not drawn)	158 to 159 °C
COc1ccc(CCNC(=O)C(=O)Nc2cccnc2)cc1OC1CCCC1	167 °C

Turning to the following compound.
[ask] Consider the compound shown here: CCCCOCCc1ccc(C2=CCC(c3ccc(Br)cc3)CC2)cc1 (stereo not drawn) What is its recorded melting point?
[reply] 86.5 to 89.5 °C

----------
Each entry below carries its reported melting point.

Worked examples, 5 compounds total:
compound	melting point
CC(C)(C)c1cc(CNn2ccnc2N2CCOCC2)cc(C(C)(C)C)c1O	161 to 163 °C
N#Cc1cccc2c1NCC2	66 to 67 °C
COc1cc(Oc2cc(C(F)(F)F)nn2C)nc(Oc2cc(C(F)(F)F)nn2C)c1	107 °C
O=C1Nc2cccnc2N(CC#CCN2CCOCC2)c2ccccc21	168 °C
OC(CCc1cccnc1)CSc1ccc2ccccc2c1 (stereo unspecified)	90 to 92 °C

Continue with the compound presented below.
[ask] Report melting point for O=C(Nc1ccc(C(F)(F)F)cc1)N1CCC(c2ccccc2)C(c2ccccc2)=N1 (stereo unspecified) please.
[reply] 171 to 173 °C
